Quick reference: cell number change of the listed items.
method: qHTS Assay for Lipid Storage Modulators in Drosophila S3 Cells;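 on cell number change: cells counted by Cell Tracker Red CMTPX staining in the red channel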
measurementParameters: BODIPY lipid droplet fluorescence, 18-24 h, cells fed with added oleic acid; measured here: cell count max response
Hit rate of the full screen: of about 320,000 compounds, about 2,100 (0.66%) were called active. Roughly 53% stayed inconclusive and do not appear here. The sample holds actives, similar compounds and a random draw of the others, so the mix is not that of the screen.
Your answer should be a plain number; it is taken to be in %.

Observe how each entry below is paired with its result.
molecule: CC(C)COc1ccc(C/C(N)=N/n2cnnc2)cc1
unitInfo: %
cell number change: -24.2

molecule: O=C1/C(=C/c2cccnc2)Cc2ccc(Cl)cc21
unitInfo: %
cell number change: 24.8

molecule: COc1cc(NC(=O)C2CC(c3c(F)cccc3Cl)=NO2)cc(OC)c1OC (centres undefined)
unitInfo: %
cell number change: -15.1

molecule: Cc1ccc(NC(=O)c2ccc(CN3CCc4ccccc4C3)cc2)cc1
unitInfo: %
cell number change: 6

molecule: COc1ccccc1N(C)S(=O)(=O)c1ccc(C(=O)O)cc1
unitInfo: %
cell number change: -4.33

Can you share its cell number change? I mean this molecule: CCSc1ccc(-c2ccco2)nn1
13.6

How about this molecule: Cc1ccc(S(=O)(=O)N(C)C)cc1NC(=O)COC(=O)c1ccc2c(c1)OCCO2
-1.35

How about this molecule: COc1ccc(S(=O)(=O)N2CCOC2CNC(=O)C(=O)NCC(C)C)cc1 (centres undefined)
-19.7

How about this molecule: Cc1cccc(NC(=S)NC2CCCC2)c1
10.6

How about this molecule: Cc1ccc(S(=O)(=O)N(C)C)cc1NC(=O)COC(=O)c1sc2cc(Cl)ccc2c1Cl
-27.1

How about this molecule: O=C(NCCN1CCOCC1)c1cccn2c(=O)c3c4c(sc3nc12)CCCC4
-12.5

How about this molecule: O=C1/C(=C/c2cccnc2)CCC/C1=C\c1cccnc1
-13.8

How about this molecule: Cc1cccc(OCC(=O)NCc2cc(C)nc3ccccc23)c1
-5.05

How about this molecule: CCOC(=O)C1CCN(CC(=O)Nc2c(C(=O)OC)n(C)c3cccc(C)c23)CC1
-3.82

How about this molecule: Cc1oc(-c2ccoc2)nc1CN(Cc1ccccc1)CC1CC1
1.56

How about this molecule: Cc1ccc(S(=O)(=O)NCc2ccco2)cc1C
-8.6

How about this molecule: Cn1c(SCC(=O)Nc2ccccc2F)nnc1-c1cccs1
14.3

How about this molecule: CC(Oc1ccc(-c2nnco2)cc1)C(=O)N1CCOCC1 (centres undefined)
6.36

How about this molecule: Cn1c(=O)oc2cc(S(=O)(=O)NCc3ccco3)ccc21
0.921

How about this molecule: FC(F)(F)c1cccc(NC(=S)NC2CCCC2)c1
-29.3

How about this molecule: O=C(Nc1ccccc1)c1ccc(CN2CCc3ccccc3C2)cc1
7.26

How about this molecule: Cc1ccc(NC(=O)c2c(F)cccc2Cl)cc1NS(C)(=O)=O
5.84

How about this molecule: O=C(Nc1ccc(S(=O)(=O)N2CCCCC2)cc1)c1ccc(CN2CCc3ccccc3C2)cc1
-10.9

How about this molecule: CCCCCCCCCCCCS[C@H]1CS(=O)(=O)C[C@@H]1O
-8.76

---

method: qHTS Assay for Lipid Storage Modulators in Drosophila S3 Cells;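 on cell number change: cells counted by Cell Tracker Red CMTPX staining in the red channel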
measurementParameters: BODIPY lipid droplet fluorescence, 18-24 h, cells fed with added oleic acid; measured here: cell count max response
The whole screen tested about 320,000 compounds, of which about 2,100 (0.66%) were called active. Not shown: some 53% with an inconclusive outcome. This excerpt belongs to a sample that is enriched for actives.
readoutName: cell number change (%)
Your answer should be a plain number; it is taken to be in %.

compound: CCCCc1c(O)nc2sc3cc(OC)ccc3n2c1=O
cell number change / %: 9.25

compound: COc1ccc(C2=NC(C)(C)Cc3cc(OC)c(OC)cc32)cc1
cell number change / %: -1.73

compound: COc1ccc2c(c1)sc1nc(=O)ccn12
cell number change / %: 21.5

compound: O=C(NCCOc1nc(N2CCOCC2)nc(N2CCOCC2)n1)Nc1ccccc1
cell number change / %: -14.8

compound: CSCCC(=O)NC1CC(C)(C)Cc2c1cnn2-c1ccccc1C (stereo unspecified)
cell number change / %: 13.5

Now consider a different compound.
Can you share its cell number change? I mean this compound: Oc1ccc(/C=N/Nc2ccnc3cc(Cl)ccc23)c(O)c1
-19.7

---

method: qHTS Assay for Lipid Storage Modulators in Drosophila S3 Cells
measurementParameters: BODIPY lipid droplet fluorescence, 18-24 h, cells fed with added oleic acid; series mostly up to 46.1 µM
The whole screen tested about 320,000 compounds, of which about 2,100 (0.66%) were called active. Not shown: some 53% with an inconclusive outcome. The call rests on the fitted dose curve; in most records, active means well fitted inhibition curve with a large enough effect in the signal ratio, with a control signal flat (not every such curve was filed as active); inconclusive means small, poorly fitted or top-dose-only effect, or effect the other way, or a change in a side signal; inactive means flat fitted curve, though single readings scatter; the % refers to the signal ratio. The entries come from a sample that favours actives as a whole.
Log the outcome using a class from true (1) (active), false (0) (inactive)

These solved cases illustrate the format of a correct answer.
compound: CCC1Sc2ccc(S(=O)(=O)CCC(=O)Nc3ccc(OC(F)(F)F)cc3)cc2NC1=O (stereo not given)
classLabel: false (0)
//
compound: COC(=O)CN(c1cccc(F)c1)S(C)(=O)=O
classLabel: false (0)
//
compound: OCCNCc1cc(Br)ccc1OCc1ccc(F)cc1
classLabel: false (0)
//
compound: O=c1[nH]c(=O)c2nnc(N/N=C\c3ccc(O)cc3)nc2[nH]1
classLabel: false (0)
//
compound: Cc1c(NC(=O)/C=C/c2ccc(S(=O)(=O)N3CCOCC3)cc2)c(=O)n(-c2ccccc2)n1C
classLabel: false (0)

Which result was noted for this compound in the test: Cc1ccc(Cl)cc1NC(=O)CNC(=O)N1CC(=O)Nc2ccccc21
false (0)

How about this compound: Cc1cccc2cc(CN(CC3CCCO3)S(=O)(=O)c3ccccc3)c3nnnn3c12 (stereo not given)
false (0)

---

method: qHTS Assay for Lipid Storage Modulators in Drosophila S3 Cells
measurementParameters: BODIPY lipid droplet fluorescence, 18-24 h, cells fed with added oleic acid; series mostly up to 46.1 µM
Out of some 320,000 compounds screened, about 2,100 (0.66%) were called active. Not shown: some 53% with an inconclusive outcome. Calls follow the shape of the dose curve; as a rule, active = well fitted inhibition curve with a large enough effect in the signal ratio, with a control signal flat (not every such curve was filed as active); inconclusive = small, poorly fitted or top-dose-only effect, or effect the other way, or a change in a side signal; inactive = flat fitted curve, though single readings scatter; the % refers to the signal ratio. The list comes from a sample in which actives are over-represented; it also holds close analogues and randomly drawn compounds.
Log the outcome using a class from Yes for active, No for inactive

Which result was noted for this molecule in the test: CCC(C)c1ccc(S(=O)(=O)Nc2cccnc2)cc1 (stereo unspecified)
No

How about this molecule: CCc1cc(=O)oc2c(C)c(OC(C)C(=O)N3CC[C@@]4(O)CCCC[C@H]4C3)ccc12 (stereo partly specified)
No

How about this molecule: Cc1cc(=O)oc2c(C)c(OC(C)C(=O)N3CC[C@@]4(O)CCCC[C@H]4C3)ccc12 (stereo partly specified)
Yes

How about this molecule: Cc1c(C)c2ccc(OCC(=O)N3CC[C@@]4(O)CCCC[C@H]4C3)cc2oc1=O
No

How about this molecule: O=c1[nH]c(N2CCCCCC2)nc2ncn(Cc3ccccc3)c12
No

How about this molecule: COc1ccccc1N1CCN(C(=O)C(=O)c2cn(CC(=O)N3CCCCCC3)c3ccccc23)CC1
Yes

How about this molecule: O=[N+]([O-])c1cccc(/C=N/NS(=O)(=O)c2ccccc2)c1
No

How about this molecule: CC(Cl)C(=O)c1ccc2c(c1)CCN2C(=O)C1CC1 (stereo unspecified)
No

---

method: qHTS Assay for Lipid Storage Modulators in Drosophila S3 Cells;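 on cell number change: cells counted by Cell Tracker Red CMTPX staining in the red channel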
measurementParameters: BODIPY lipid droplet fluorescence, 18-24 h, cells fed with added oleic acid; measured here: cell count max response
Out of some 320,000 compounds screened, about 2,100 (0.66%) were called active. About 53% were inconclusive and are not listed. The list comes from a sample in which actives are over-represented; it also holds close analogues and randomly drawn compounds.
readoutName: cell number change (%)
Your answer should be a plain number; it is taken to be in %.

Observe how each entry below is paired with its result.
molecule: CC(C)=CCN1CCN(Cc2cnc(N3CCOCC3)s2)CC1CCO (stereo unspecified)
unitInfo: %
cell number change: -26.5
--
molecule: Cc1ccc(CN2CCN(Cc3cnc(N4CCOCC4)s3)CC2CCO)cc1 (stereo unspecified)
unitInfo: %
cell number change: -2.17
--
molecule: O=C(Nc1ccccc1N1CCCCC1)c1ccc(-c2ccc(Cl)cc2)o1
unitInfo: %
cell number change: 1.36
--
molecule: COc1ccc(C(C)=O)cc1COC(=O)c1cc2ccccc2cc1O
unitInfo: %
cell number change: -9.52
--
molecule: C/C(=N\NC(=O)c1ccccc1OCc1ccc(F)cc1)c1ccccn1
unitInfo: %
cell number change: -7.7
--
molecule: COc1ccc(CCN(C)C(=O)c2cc(=O)c3ccccc3o2)cc1OC
unitInfo: %
cell number change: -2.86
--
molecule: O=C(CNC(c1ccccc1)c1ccccc1)NCc1ccccc1Cl
unitInfo: %
cell number change: 11.7
--
molecule: COc1ccccc1NS(=O)(=O)c1cccc(C(=O)NCC2(N(C)C)CCCCC2)c1
unitInfo: %
cell number change: 16.3

Can you share its cell number change? I mean this molecule: CCC(=O)Nc1ccc(-c2nnc(SCC(=O)Nc3nccs3)n2C)cc1
0.852

How about this molecule: COc1cnc(-c2ccccc2)nc1Sc1ccccc1
14.5

How about this molecule: COc1ccc2nc(SCc3ccccc3C)nc(C)c2c1
-12.5
